- Tested on: OVCAR-5 ovarian
- Protocol details: NCI tumour cell line growth inhibition, 48 h
Readout kind: TGI

In the examples that follow, each entry is paired with its recorded TGI.
O=C(CCCC1Cc2ccccc2C1=O)c1ccccc1 (stereo unspecified) :: > 100 µM
COc1ccc(/C=C\c2cc(OC)c(OC)c(OC)c2)cc1OC(=O)C(N)CCC(=O)O (stereo unspecified) :: > 100 µM

Give TGI for each of the items listed below.
1. COc1ccc2nc(-c3ccccc3)cc(Nc3ccc(C(C)=O)cc3)c2c1
2. O=C(O)CCC(C(=O)O)N1C(=O)c2ccccc2C1=O (stereo unspecified)

Found:
19.1 µM
> 100 µM

Report TGI for each item below.
1. CC1(CCc2ccccc2)CC1(Br)Br (stereo unspecified)
2. CCCCCCCCCCC(C)CCCCCCC(=O)OCC(COP(=O)([O-])OCC[N+](C)(C)C)OC(=O)CCCCCCC(C)CCCCCCCCCC (stereo unspecified)
3. O=C(O)C(F)(F)C(F)(F)C(F)(F)C(F)(F)C(=O)O
4. CSc1nc2c(c(=O)n1C)N=C(c1ccc(Cl)cc1)CC(c1ccccc1)N2 (stereo unspecified)

Found:
1: > 100 µM; 2: > 100 µM; 3: > 100 µM; 4: > 100 µM

Below are 3 compounds. Give each one its TGI.
1. CCOC(=O)CN=C1Nc2ccccc2C(=O)N2CSCC12 (stereo unspecified)
2. CCCc1ccc(S(=O)(=O)N[C@H]2CC[C@H]3[C@@H]4CCc5cc(O)ccc5[C@H]4CC[C@]23C)cc1
3. OC(C1=C/C(=C\c2ccncc2)c2ccccc21)c1ccncc1 (stereo unspecified)

Found:
1: > 100 µM; 2: 4.44 µM; 3: 37.4 µM
